# Target Or Test System: Concanavalin-A (Canavalia ensiformis)
# Test Summary: ConA small-molecule binders, primary screen, artefact control for SMM control protein annotation, biochemical, small-molecule microarray, Alexa647 label, 635 nm (AID 1127);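 further: z combines 667 nm emission intensity with signal-to-noise across three replicate slides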
# Stated Conditions: ConA-A647 binding fluorescence, higher = more signal
Would you mind telling me the reported composite z-score of each entry?
Please give only the number in your answer, with no unit.

INPUT: Tell me its composite z-score given CC(=O)OC[C@H]1O[C@H](CC=NOC[C@@H](O)COCc2ccco2)C=C[C@@H]1OC(C)=O as the entry.
OUTPUT: -0.389

INPUT: Tell me its composite z-score given C[C@H]1CC[C@H]2C(=O)N[C@H](Cc3ccccc3)C(=O)N2[C@@H]1c1ccccc1 as the entry.
OUTPUT: -0.126

INPUT: Tell me its composite z-score given CC(C)CON=C1[C@H]2CCn3c(=O)n(C)c(=O)n3[C@H]2[C@H](O)[C@@H]2O[C@H]12 as the entry.
OUTPUT: 0.328

====

# Test Summary: small-molecule microarray binders of probe aLefty2, primary screen, biochemical, biotinylated probe, 635/667 nm fluorescence (AID 1094);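 further: score merges spot fluorescence near 667 nm with spot signal-to-noise ratio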
# Stated Conditions: higher = more signal
Parameter: composite z-score
Please give only the number in your answer, with no unit.

INPUT: Tell me its composite z-score given CCOC(=O)CCN1C(=O)[C@H]2[C@H]3[C@H](O)[C@H](O)CC(=NNC(=O)OCc4ccccc4)[C@H]3CC[C@H]2C1=O as the entry.
OUTPUT: -0.0515

INPUT: Tell me its composite z-score given COC(=O)[C@H](C)NC(=O)CCC1CC(OC(=O)NCc2cccc3ccccc23)CC2(CCCC(COC(=O)NCc3ccccc3)O2)O1 (some centres undefined) as the entry.
OUTPUT: -0.0638

INPUT: Tell me its composite z-score given C#CCCCON=C1C[C@@H](O)[C@@H](O)[C@@H]2[C@@H]3C(=O)N(C4CCCCC4)C(=O)[C@@H]3CC[C@@H]12 as the entry.
OUTPUT: -0.118

INPUT: Tell me its composite z-score given COCC#Cc1ccc([C@@H]2N[C@H](C(=O)O)CC[C@H]2C)cc1 as the entry.
OUTPUT: -0.186

====

# Target Or Test System: Follistatin-related protein 3 (Homo sapiens)
# Test Summary: FSTL3 binders on small-molecule microarrays, primary screen, biochemical, small-molecule microarray, 635 nm fluorescence (AID 1105);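 further: score merges emission near 667 nm and signal to noise per printed spot across three slides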
# Stated Conditions: FSTL3 binding, higher = more signal
Parameter: composite z-score
Please give only the number in your answer, with no unit.

INPUT: Tell me its composite z-score given CC(CCN1CCCc2nc(C)c(C)cc21)=NOC[C@@H](C)[C@H](OCc1ccccc1)C(C)C as the entry.
OUTPUT: -0.413

INPUT: Tell me its composite z-score given COc1ccc(O[C@H]2C=C[C@@H](c3ccccc3)O[C@@H]2CON=C2c3cc(OC)ccc3O[C@H](c3cccc(OC)c3)[C@H]2O)cc1 as the entry.
OUTPUT: 0.589

INPUT: Tell me its composite z-score given CC(CCN1CCCCc2nc(C)c(C)cc21)=NO[C@@H](C)c1cc(-c2c(C)cc(C)cc2C)no1 as the entry.
OUTPUT: -1.35

INPUT: Tell me its composite z-score given O=C1CCCC=C1C(O)C1CCCCC1 (centres undefined) as the entry.
OUTPUT: 0.324

INPUT: Tell me its composite z-score given O=C1[C@H]2[C@H]3[C@H](O)[C@H](O)CC(=NOC[C@@H](O)COCc4ccco4)[C@@H]3CC[C@H]2C(=O)N1Cc1ccccc1 as the entry.
OUTPUT: 1.51

INPUT: Tell me its composite z-score given CCOC(=O)CCN1C(=O)[C@H]2[C@H]3[C@H](O)[C@H](O)CC(=NNC(=O)OCc4ccc(OC)cc4)[C@H]3CC[C@H]2C1=O as the entry.
OUTPUT: 0.449

INPUT: Tell me its composite z-score given CN1CCc2nc(-c3ccccc3)c(-c3ccccc3)cc2C1 as the entry.
OUTPUT: 0.359

INPUT: Tell me its composite z-score given O=C1[C@H]2[C@H]3[C@H](O)[C@H](O)CC(=NO[C@@H]4O[C@H](CO)[C@@H](O)[C@H](O)[C@H]4O)[C@@H]3CC[C@H]2C(=O)N1c1cccc(Oc2ccccc2)c1 as the entry.
OUTPUT: 0.711

INPUT: Tell me its composite z-score given CCOC(=O)[C@H](Cc1ccccc1)NC(=O)CCC1CC(OC(=O)NCc2cccc3ccccc23)CC2(CCCC(COC(=O)NCc3ccc4c(c3)OCO4)O2)O1 (some centres undefined) as the entry.
OUTPUT: 0.224

INPUT: Tell me its composite z-score given COC(=O)[C@H](C)NC(=O)CCC1CC(OC(=O)NCCc2ccc(F)cc2)CC2(CCCC(COC(=O)NCc3ccccc3)O2)O1 (some centres undefined) as the entry.
OUTPUT: 1.29

INPUT: Tell me its composite z-score given COC(=O)CC=C[C@@H](C)[C@@H](C=NOC[C@@H](C)[C@H](OCc1ccccc1)C(C)C)NS(=O)(=O)c1ccc(C)cc1 as the entry.
OUTPUT: -0.888

INPUT: Tell me its composite z-score given COc1ccc(-c2cnnc(CCCn3ccnc3-c3ccccc3)n2)cc1 as the entry.
OUTPUT: 1.37

INPUT: Tell me its composite z-score given CC(C)=NO[C@H](C)c1cn([C@@H]2COC[C@H]2O)nn1 as the entry.
OUTPUT: 0.67

INPUT: Tell me its composite z-score given CC(C)(C)N1C(=O)[C@H]2[C@H]3[C@H](O)[C@H](O)CC(=NOC[C@@H](O)COCc4ccco4)[C@H]3CC[C@H]2C1=O as the entry.
OUTPUT: -0.28

INPUT: Tell me its composite z-score given O=C1[C@H]2[C@H]3[C@H](O)[C@H](O)CC(=NOC[C@@H](O)COCc4ccco4)[C@@H]3CC[C@H]2C(=O)N1C1CCCCC1 as the entry.
OUTPUT: 1.36

INPUT: Tell me its composite z-score given C=C(C)C(=O)OC[C@H]1CN2[C@@H](CC[C@@H](C)[C@@H]2c2ccc(Br)cc2)C(=O)O1 as the entry.
OUTPUT: -0.214

INPUT: Tell me its composite z-score given O=C1[C@H]2[C@H]3[C@H](O)[C@H](O)CC(=NOC[C@@H](O)COCc4ccco4)[C@@H]3CC[C@H]2C(=O)N1Cc1ccc2c(c1)OCO2 as the entry.
OUTPUT: 0.9

INPUT: Tell me its composite z-score given COC(=O)[C@H](C)NC(=O)CCC1CC(OC(=O)NCCc2ccc(F)cc2)CC2(CCCC(COC(=O)NCCc3ccccc3OC)O2)O1 (some centres undefined) as the entry.
OUTPUT: 1.16

INPUT: Tell me its composite z-score given COC(=O)[C@@H]1CC[C@H](C)[C@@H](c2ccc(C)cc2)N1C(=O)c1ccc(C=NOC[C@@H](O)[C@H]2O[C@@H]3OC(C)(C)O[C@@H]3[C@H]2O)cc1 as the entry.
OUTPUT: 0.543

INPUT: Tell me its composite z-score given CCOC(=O)[C@H](CC(C)C)NC(=O)CCC1CC(OC(=O)NCCc2ccc(F)cc2)CC2(CCCC(COC(=O)NCCCN3CCCC3=O)O2)O1 (some centres undefined) as the entry.
OUTPUT: 0.572

INPUT: Tell me its composite z-score given O=C1C[C@@H](O)[C@@H](O)[C@@H]2[C@@H]3C(=O)N(c4ccc(F)cc4F)C(=O)[C@@H]3CC[C@H]12 as the entry.
OUTPUT: 0.638

INPUT: Tell me its composite z-score given CC(CCC(=O)OC[C@H]1O[C@H](C#Cc2ccccc2)C=C[C@@H]1Oc1ccc(C)cc1)=NO[C@H](C)c1cn([C@@H]2COC[C@H]2O)nn1 as the entry.
OUTPUT: 0.22

INPUT: Tell me its composite z-score given COC(=O)[C@@H]1CC[C@H](C)[C@@H](c2ccc(Br)cc2)N1C[C@@H](O)CN=[N+]=[N-] as the entry.
OUTPUT: 0.0985

INPUT: Tell me its composite z-score given COC(=O)[C@H](C)NC(=O)CCC1CC(OC(=O)NCc2cccc3ccccc23)CC2(CCCC(COC(=O)NCc3ccccc3)O2)O1 (some centres undefined) as the entry.
OUTPUT: 0.918

====

# Test Summary: fission yeast growth modulation, primary screen, strain 972, OD600, 24 h, no modulator (AID 1090);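 further: basal condition with compound alone and no growth modifier present; test concentration not given here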
# Stated Conditions: S. pombe 972 growth, called active from +8 up or from −8 down
Active and inactive are the calls of the source.
Return exactly one item of active, inactive

INPUT: What outcome does the record of this test show for COc1ccc(COC(=O)NN=C2C[C@@H](O)[C@@H](O)[C@@H]3[C@@H]4C(=O)N(C(C)(C)C)C(=O)[C@@H]4CC[C@@H]23)cc1 ?
OUTPUT: inactive

INPUT: What outcome does the record of this test show for CC(=O)OC[C@H]1O[C@H](CCON=C(C)CCN2CCCc3nc(C)c(C)cc32)C=C[C@@H]1OC(C)=O ?
OUTPUT: inactive

INPUT: What outcome does the record of this test show for CON=C(C)CCC(=O)OC[C@H]1O[C@H](C#Cc2ccccc2)C=C[C@@H]1Oc1ccc(C)cc1 ?
OUTPUT: active

INPUT: What outcome does the record of this test show for Cc1ccc(S(=O)(=O)N[C@@H]2COC(=O)CC=C[C@@H](C)[C@H](NS(=O)(=O)c3ccc(C)cc3)COC(=O)[C@H](C)NC(=O)CC=C[C@H]2C)cc1 ?
OUTPUT: inactive

INPUT: What outcome does the record of this test show for CC(CCN1CCCc2nc(C)c(C)cc21)=NO[C@H](C)c1cn([C@@H]2COC[C@H]2O)nn1 ?
OUTPUT: inactive

INPUT: What outcome does the record of this test show for C=CC[C@@H]1C=C[C@H](ON=C(C)CCN2CCCc3nc(C)c(C)cc32)[C@@H](CO)O1 ?
OUTPUT: inactive

INPUT: What outcome does the record of this test show for COC(=O)[C@H](C)NC(=O)CCC1CC(OC(=O)NCc2cccc3ccccc23)CC2(CCCC(COC(=O)NCCC(C)C)O2)O1 (some centres not stated) ?
OUTPUT: inactive

Source: PubChem BioAssay
